# SYSTEM_UNDER_TEST: T1, human A-beta(1-40) peptide, monomeric (BAM) (human, biotin at the C-terminus in capture ELISA, SPR and TR-FRET; not biotinylated where coated directly (Example 7))
# T1 construct: synthetic peptide (Anaspec), TFA/HFIP treated to give monomer; also called monomeric A-beta
# TEST_DESCRIPTION: TR-FRET competition; labelled competitor not given
MEASURED_PROPERTY: IC50 (nM)

Solved cases (5 shown):
[[record]]
binder = "ABII031 (VHH, humanized variant of ABII002) VHH: EVQLLESGGGLVQPGGSLRLSCVHSGPTFRTDTMGWFRQAPGKGREFVAAVTWNSGRINYADSVKGRFTISRDNSKNAVYLQMSSLRPEDTAVYYCAAHRFVVGGNRVEDWRYWGQGTLVTVSS"
unit = "nM"
recorded_number = 13

[[record]]
binder = "ABII019 (VHH, humanized variant of ABII002) VHH: EVQLLESGGGLVQPGGSLRLSCAHSGPTFRTDTMGWFRQAPGKGREFVAAVTWNSGRINYADSVKGRFTISRDNSKNTVYLQMNSLRPEDTAVYYCAAHRFVVGGNRVEDWRYWGQGTLVTVSS"
unit = "nM"
recorded_number = 14

[[record]]
binder = "ABII010 (VHH, humanized variant of ABII002) VHH: EVQLLESGGGLVLPGGSLRLSCVHSGPTFRTDTMGWFRQAPGKGREFVAAVTWNSGRINYADSVKGRFTVSRDNTRNTAYLQMSGLKDEDTAVYYCTAHRFVVGGNRVEDWRYWGQGTLVTVSS"
unit = "nM"
recorded_number = 1.9

[[record]]
binder = "ABII021 (VHH, humanized variant of ABII002) VHH: EVQLLESGGGLVQPGGSLRLSCAHSGPTFRTDTMGWFRQAPGKGREFVAAVTWNSGRINYADSVKGRFTISRDNSKNAVYLQMNSLRPEDTAVYYCAAHRFVVGGNRVEDWRYWGQGTLVTVSS"
unit = "nM"
recorded_number = 24

[[record]]
binder = "ABII009 (VHH, humanized variant of ABII002) VHH: EVQLLESGGGLVLPGGSLRLSCVHSGPTFRTDTMGWFRQAPGKGREFVAAVTWNSGRINYADSVKGRFTVSRDNTKNAAYLQMSGLKDEDTAVYYCTAHRFVVGGNRVEDWRYWGQGTLVTVSS"
unit = "nM"
recorded_number = 1.7


A. ABII007 (VHH, humanized variant of ABII002) VHH: EVQLLESGGGLVLPGGSLRLSCVHSGPTFRTDTMGWFRQAPGKGREFVAAVTWNSGRINYADSVKGRFTISRDNTRNAAYLQMSGLKDEDTAVYYCTAHRFVVGGNRVEDWRYWGQGTLVTVSS
B. ABII052 (VHH, humanized variant of ABII050) VHH: EVQLLESGGGLVQPGGSLRLSCAASGRTFNNYNMGWFRQAPGKGREFVAAVSRSGVSTYYADSVKGRFTISRDNSKNAVYLQMNSLRPEDTAIYYCGAAYRGTAINVRRSYDSWGQGTLVTVSS
C. ABII034 (VHH, humanized variant of ABII002) VHH: EVQLLESGGGLVQPGGSLRLSCVHSGPTFRTDTMGWFRQAPGKGREFVAAVTWNSGRINYADSVKGRFTISRDNSKNTVYLQMSSLRPEDTAVYYCAAHRFVVGGNRVEDWRYWGQGTLVTVSS
Sort by IC50, descending. Respond with an ordered listing of the labels, as requested. B, C, A
(B: 19 nM, C: 10 nM, A: 1.6 nM)
